Sourced from PubChem BioAssay (NCATS)

- Protocol Summary: Quantitative High-Throughput drug screen in 47 multiple myeloma cell lines against the NCATS MIPE library collection: XG1_PLB cell viability assay (AID 1919866); also: nearly all actives have a fitted effect of over 35% in size
- Assay Conditions: CellTiter-Glo ATP, 48 h; series mostly up to 45.8 µM
Records with an inconclusive call do not appear. Activity calls are given as the source filed them. Calls follow the shape of the dose curve; as a rule, active = well fitted cell-killing curve with a large enough effect; inconclusive = small, poorly fitted or top-dose-only effect, or effect the other way; inactive = no such curve, though single readings can be large or run the other way.
Classes used: true for active, false for inactive

[[record]]
compound = "OC(c1cc(C(F)(F)F)nc2c(C(F)(F)F)cccc12)C1CCCCN1 (configuration not stated)"
category_label = "true"

[[record]]
compound = "CCN(CC)CCCCNc1nc2cc(Cl)c(Cl)cc2nc1-c1ccc(-c2cccs2)s1"
category_label = "true"

[[record]]
compound = "O=C1CCCC(=O)C1C(=O)c1ccc(C(F)(F)F)cc1[N+](=O)[O-]"
category_label = "false"

[[record]]
compound = "CC1CNc2c(cccc2S(=O)(=O)N[C@@H](CCCN=C(N)N)C(=O)N2CC[C@@H](C)C[C@@H]2C(=O)O)C1 (some centres not stated)"
category_label = "false"

[[record]]
compound = "CN[C@@H]1[C@@H](O)[C@@H](O[C@@H]2[C@@H](O)[C@H](O[C@H]3O[C@H](CN)[C@@H](O)[C@H](O)[C@@H]3O)[C@@H](N)C[C@@H]2NC(=O)[C@@H](O)CN)OC[C@]1(C)O"
category_label = "false"

[[record]]
compound = "c1cc(OCCN2CCCCC2)cc(-c2n[nH]c3ccc(-c4ncn[nH]4)cc23)c1"
category_label = "true"

[[record]]
compound = "O=C(Nc1cccc2c(=O)cc(-c3nn[nH]n3)oc12)c1ccc(OCCCCc2ccccc2)cc1"
category_label = "true"

[[record]]
compound = "O=S(=O)(NCCNCC=Cc1ccc(Br)cc1)c1cccc2cnccc12"
category_label = "true"

[[record]]
compound = "NC(=O)c1noc([C@H](CCCC2CCCCC2)CC(=O)NO)n1"
category_label = "true"

[[record]]
compound = "C[C@@H](NC(=O)c1ncnc(N)c1Cl)c1ncc(C(=O)Nc2cc(C(F)(F)F)c(Cl)cn2)s1"
category_label = "true"

[[record]]
compound = "CC[C@H](C=C[C@@H](C)[C@H]1CC[C@H]2[C@@H]3CC=C4C[C@@H](O)CC[C@]4(C)[C@@H]3CC[C@]12C)C(C)C"
category_label = "true"

[[record]]
compound = "Cc1ccccc1C(C(=O)NC1CCCCC1)N(C(=O)CNc1ccc(C#N)cc1)c1cccc(F)c1 (configuration not stated)"
category_label = "false"

[[record]]
compound = "COc1cc2ncnc(Nc3cc(Br)c(O)c(Br)c3)c2cc1OC"
category_label = "true"

[[record]]
compound = "CC(C)=CCCC(C)=CCCC(C)=CCCC(C)=CCCC(C)=CCCC(C)=CCCC(C)=CCCC(C)=CCCC(C)=CCO"
category_label = "false"

[[record]]
compound = "C[C@@H]1C[C@H]2[C@@H]3CCC4=CC(=O)C=C[C@]4(C)[C@@]3(F)[C@@H](O)C[C@]2(C)[C@@]1(O)C(=O)CO"
category_label = "false"

[[record]]
compound = "CO[C@H]1C=CO[C@@]2(C)Oc3c(C)c(O)c4c(O)c(c(C=NN5CCN(C)CC5)c(O)c4c3C2=O)NC(=O)C(C)=CC=C[C@H](C)[C@H](O)[C@@H](C)[C@@H](O)[C@@H](C)[C@H](OC(C)=O)[C@H]1C"
category_label = "false"

[[record]]
compound = "O=C(NC[C@H](O)CO)c1ccncc1Nc1ccc(I)cc1F"
category_label = "true"

